- Experimental Details: stimulators of insulin release from INS-1E, primary screen, cell-based, 5 mM glucose, NPC library (AID 1117329); also: reference of the scale not given here
- Measurement Setup: rat INS-1E insulin secretion, at 10 µM, active compounds read high
Measurement Label: insulin secretion stimulation (%)
Number only, in %; omit the unit.

The examples below pair each entry with its known result.
1. O=C1OC(c2ccc(O)c(S(=O)(=O)O)c2)(c2ccc(O)c(S(=O)(=O)O)c2)c2c(Br)c(Br)c(Br)c(Br)c21 | 0.75
2. COP(=S)(OC)Oc1cc(Cl)c(Cl)cc1Cl | 2.1
3. C#C[C@]1(O)C=C[C@H]2[C@@H]3CCC4=CC(=O)CC[C@@H]4[C@H]3CC[C@@]21CC | -0.7
4. O=[N+]([O-])C(Br)(CO)CO | 20.2
5. CCOC(=O)c1ncn2c1CN(C)C(=O)c1c(I)cccc1-2 | 0.8

**Query** May I ask what insulin secretion stimulation has been recorded for COc1cc(N)c(Cl)cc1C(=O)NC1CN2CCC1CC2 (centres undefined) ?
**Result** 3

**Query** Item under review: C=C(C)[C@H]1CN[C@H](C(=O)O)[C@H]1CC(=O)O . Reported insulin secretion stimulation?
**Result** -1.6

**Query** Reported insulin secretion stimulation for Cc1ccc(S(=O)(=O)N[C@@H](CCCCN)C(=O)CCl)cc1 : what is it?
**Result** 0.9

**Query** Consider the compound shown here: Fc1ccc(C(OCCN2CCN(CCCc3ccccc3)CC2)c2ccc(F)cc2)cc1 What is its recorded insulin secretion stimulation?
**Result** 4.65

**Query** // insulin secretion stimulation lookup, key: CCCN1CCC[C@@H]2Cc3nc(N)ncc3C[C@H]21
**Result** -0.2
